Test system: Staphylococcus aureus
assay-info: Antibacterial activity against Staphylococcus aureus ATCC 29213 treated for 24 hrs followed by compound treated at 2 to 16 times MIC measured after 24 hrs by micro dilution method
Format: functional
measurement-context: ATCC 29213, 24 h
property: MBC (µg/mL)
Give bare numbers, in µg/mL.

Here is how some compounds turned out for MBC.
structure-as-smiles	tested-system	unit-info	MBC
CCCc1cc(I)c(O)c(-c2cc(CCC)cc(I)c2O)c1	Staphylococcus aureus	µg/mL	64
CCCc1cc(Cl)c(O)c(-c2cc(CCC)cc(Cl)c2O)c1	Staphylococcus aureus	µg/mL	4
CCCCc1cc(Cl)c(O)c(-c2cc(CCCC)cc(Cl)c2O)c1	Staphylococcus aureus	µg/mL	8
O=C(O)c1cn(C2CC2)c2cc(N3CCNCC3)c(F)cc2c1=O	Staphylococcus aureus	µg/mL	0.5
CCCc1cc(Br)c(O)c(-c2cc(CCC)cc(Br)c2O)c1	Staphylococcus aureus	µg/mL	4

Hi team, please reply with MBC for each item in this list.
1. CC[C@H]1OC(=O)[C@H](C)[C@@H](O[C@H]2C[C@@](C)(OC)[C@@H](O)[C@H](C)O2)[C@H](C)[C@@H](O[C@@H]2O[C@H](C)C[C@H](N(C)C)[C@H]2O)[C@](C)(O)C[C@@H](C)C(=O)[C@H](C)[C@@H](O)[C@]1(C)O
2. CCCCc1cc(I)c(O)c(-c2cc(CCCC)cc(I)c2O)c1

1: 1; 2: 4

I need MBC for every entry listed below, if you could help.
1. CCCCc1ccc(O)c(-c2cc(CCCC)cc(Br)c2O)c1
2. C=CCc1ccc(O)c(-c2cc(CC=C)ccc2O)c1

1: 2; 2: 32

Batch lookup, MBC per entry.
1. C=CCc1cc(O)c(O)c(-c2cc(CC=C)cc(OC)c2O)c1
2. CCCCc1cc(Br)c(O)c(-c2cc(CCCC)cc(Br)c2O)c1
3. CCCc1ccc(O)c(-c2cc(CCC)cc(Br)c2O)c1

16
8
8

Would you kindly share the measured MBC for C=CCc1cc(O)c(O)c(-c2cc(CC=C)cc(O)c2O)c1 ? 8
